Species on record: Homo sapiens
Test: Selectivity for ERK (unknown origin) over AUR-B (unknown origin) at 1 uM
quantity-kind: Selectivity ratio

Examples from the recorded data:
• C=CC(=O)Nc1ccccc1Nc1nc(NC2CCOCC2)ncc1C(F)(F)F = 6
• C=CC(=O)Nc1ccccc1Nc1nc(Nc2ccnn2C)ncc1Cl = 7

1: C=CS(=O)(=O)Nc1ccc2[nH]nc(-c3ccncc3)c2c1
2: C=CC(=O)Nc1ccccc1Nc1nc(NC2CCOCC2)ncc1Cl
Short answer wanted: higher Selectivity ratio, 1 or 2 ? Mark your answer with the label of the selected entry.
1

---

Species: Homo sapiens
Experiment: Selectivity for ERK (unknown origin) over AUR-C (unknown origin) at 1 uM
quantity-kind: Selectivity ratio

Please review the following examples before continuing.
* C=CC(=O)Nc1ccccc1Nc1nc(NC2CCOCC2)ncc1Cl | 4
* C=CS(=O)(=O)Nc1ccc2[nH]nc(-c3ccncc3)c2c1 | 8

P: C=CC(=O)Nc1ccccc1Nc1nc(NC2CCOCC2)ncc1C(F)(F)F
Q: CNC(=O)c1ccc(F)cc1Nc1cc(Nc2cc(C)nn2C)ncc1C(F)(F)F
Lab note: check whether P or Q has the lower measured Selectivity ratio. Give the label of your selection.
P

---

Molecular target: Dual specificity mitogen-activated protein kinase kinase 1 (Homo sapiens)
Sequence (Q02750 whole entry): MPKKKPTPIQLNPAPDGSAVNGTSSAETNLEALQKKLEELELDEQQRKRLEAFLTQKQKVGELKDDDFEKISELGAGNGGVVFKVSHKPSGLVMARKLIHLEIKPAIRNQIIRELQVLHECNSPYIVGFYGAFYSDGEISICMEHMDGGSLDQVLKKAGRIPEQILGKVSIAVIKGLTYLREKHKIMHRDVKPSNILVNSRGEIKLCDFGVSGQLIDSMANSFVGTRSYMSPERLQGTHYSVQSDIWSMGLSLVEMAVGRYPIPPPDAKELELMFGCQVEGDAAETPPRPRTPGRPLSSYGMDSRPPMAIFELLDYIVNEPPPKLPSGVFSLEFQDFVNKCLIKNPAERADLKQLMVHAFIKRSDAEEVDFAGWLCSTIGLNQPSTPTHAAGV
Assay: Inhibition of MEK1 (unknown origin) autophosphorylation incubated with enzyme for 20 mins prior to ATP addition by ADP Glo kinase assay in presence of ATP at Km concentration
quantity-kind: IC50

* CNC(=O)c1ccc(F)cc1Nc1cc(Nc2cc(C)nn2C)ncc1C(F)(F)F | > 10 µM
* C=CS(=O)(=O)N1CCc2[nH]nc(-c3ccnc(C)c3)c2C1 | 4.9 µM
* CNC(=O)c1ccc(F)cc1Nc1cc(NC2CCOCC2)ncc1C(F)(F)F | > 10 µM
* C=CC(=O)Nc1ccccc1Nc1nc(Nc2ccnn2C)ncc1C | 0.26 µM
* C=CC(=O)Nc1cnccc1Nc1nc(NC2CCOCC2)ncc1Cl | > 10 µM

Any idea what IC50 was measured for C=CC(=O)Nc1ccccc1Nc1nc(N[C@H]2CC[C@H](N(C)C)CC2)ncc1Cl ?
> 10 µM

And what about the molecule C=CC(=O)Nc1ccccc1Nc1nc(NC2CCOCC2)ncc1C ?
> 10 µM

Next molecule up: C=CS(=O)(=O)N1CCc2cnc(NC3CCOCC3)nc2C1
> 10 µM

---

Tested on: A-375
Assay: Antiproliferative activity against human A375 cells harboring B-RAF V600E mutant after 72 hrs by Cellomics ArrayScanTM VTI imaging analysis
Assay type: functional, cell-based
Conditions: A-375, 72 h
quantity-kind: IC50 (nM)

Some entries whose results are on file:
• C=CC(=O)Nc1ccccc1Nc1nc(Nc2ccnn2C)ncc1Cl = 91
• C=CC(=O)Nc1ccccc1Nc1nc(Nc2ccnn2C)ncc1C = 240

1: C=CS(=O)(=O)Nc1ccc2[nH]nc(-c3ccncc3)c2c1
2: CC(C)Nc1cc(-c2c[nH]c(C(=O)N[C@H](CO)c3cccc(Cl)c3)c2)c(Cl)cn1 [ULIXERTINIB]
For the two items 1 and 2 , which reports the higher IC50 value? # answer = label of selected item
1

a: C=CS(=O)(=O)N1CCc2[nH]nc(-c3ccnc(C)c3)c2C1
b: C=CC(=O)Nc1ccccc1Nc1cc(NC2CCOCC2)ncc1Cl
Between these two entries, a and b , state which has the higher IC50. Your answer should be the label attached to the chosen record.
a

---

Test: 1-Octanol-aqueous phosphate buffer partition coefficient, logD of the compound at pH 7.4
Type: physicochemical
quantity-kind: logD

Worked examples, 3 compounds total:
- O=C(Nc1ccc2[nH]nc(-c3ccncc3)c2c1)[C@@H]1CCN(CC(=O)N2CCN(c3ccc(-c4ncccn4)cc3)CC2)C1: 3.2
- CNC(=O)c1ccccc1Nc1cc(NC2CCOCC2)ncc1Cl: 2.8
- CNC(=O)c1ccc(F)cc1Nc1cc(Nc2cc(C)nn2C)ncc1C(F)(F)F: 3.8

a: C=CS(=O)(=O)Nc1ccc2[nH]nc(-c3ccncc3)c2c1
b: CNC(=O)c1ccc(F)cc1Nc1cc(NC2CCOCC2)ncc1C(F)(F)F
c: C=CS(=O)(=O)N1CCc2cnc(NC3CCOCC3)nc2C1
Returns the items ordered by logD, from maximum to minimum. Returns: the labels arranged in the requested order.
b, a, c
(b: 3.4, a: 2.2, c: 1)

A: C=CC(=O)Nc1ccccc1Nc1nc(Nc2ccnn2C)ncc1C
B: C=CC(=O)Nc1ccccc1Nc1nc(N[C@H]2CC[C@H](N(C)C)CC2)ncc1Cl
Smaller logD value, A vs B ? Write the label of whichever entry you select.
B

A: C=CC(=O)Nc1ccccc1Nc1cc(NC2CCOCC2)ncc1Cl
B: C=CS(=O)(=O)N1CCc2[nH]nc(-c3ccnc(C)c3)c2C1
Between A and B , whose recorded logD is greater? Kindly give the label for the entry you pick.
A

P: C=CC(=O)Nc1ccccc1Nc1nc(NC2CCOCC2)ncc1C(F)(F)F
Q: C=CC(=O)Nc1ccccc1Nc1nc(NC2CCOCC2)ncc1C
Decide: P or Q , by lowest recorded logD. Mark your answer with the label of the selected entry.
Q
(Q: 2, P: 2.9)

---

Test: Intrinsic clearance in human liver microsomes
Format: ADME
Conditions: read-out: CLH
quantity-kind: microsomal CLint (µL/min/mg)

- C=CC(=O)Nc1cnccc1Nc1nc(NC2CCOCC2)ncc1Cl: 13
- C=CC(=O)Nc1ccccc1Nc1nc(NC2CCOCC2)ncc1C(F)(F)F: 38
- C=CC(=O)Nc1ccccc1Nc1nc(Nc2ccnn2C)ncc1C: 19

I: C=CC(=O)Nc1ccccc1Nc1cc(NC2CCOCC2)ncc1Cl
II: C=CC(=O)Nc1ccccc1Nc1nc(Nc2ccnn2C)ncc1Cl
III: C=CC(=O)Nc1ccccc1Nc1nc(NC2CCOCC2)ncc1C
IV: C=CC(=O)Nc1ccccc1Nc1nc(NC2CCOCC2)ncc1Cl
Sequence the entries by microsomal CLint, beginning with the highest number. Answer by listing the labels in the requested order.
IV, II, I, III

---

Target: Mitogen-activated protein kinase 1 (Homo sapiens)
Sequence (P28482 whole entry): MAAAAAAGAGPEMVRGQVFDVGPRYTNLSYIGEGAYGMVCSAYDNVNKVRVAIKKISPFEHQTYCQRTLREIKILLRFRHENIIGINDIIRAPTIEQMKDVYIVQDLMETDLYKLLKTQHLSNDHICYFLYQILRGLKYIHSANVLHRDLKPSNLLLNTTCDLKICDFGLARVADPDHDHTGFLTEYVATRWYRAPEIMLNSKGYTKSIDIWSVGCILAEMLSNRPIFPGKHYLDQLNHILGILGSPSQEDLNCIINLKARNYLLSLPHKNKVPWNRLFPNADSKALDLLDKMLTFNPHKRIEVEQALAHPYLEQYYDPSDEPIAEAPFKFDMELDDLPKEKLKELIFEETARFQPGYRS
Assay: Inhibition of MEK U911-activated ERK2 (unknown origin) using Erktide as substrate preincubated with enzyme for 20 mins prior to substrate addition by RapidFire Mass Spectrometry in presence of ATP at Km concentration
pIC50: −log10 of the molar value.
quantity-kind: pIC50

* C=CC(=O)Nc1ccccc1Nc1nc(NC2CCOCC2)ncc1Cl | 8.07

1: CCC(=O)Nc1ccccc1Nc1nc(NC2CCOCC2)ncc1Cl
2: CNC(=O)c1ccc(F)cc1Nc1cc(NC2CCOCC2)ncc1C(F)(F)F
I'm curious, which of these has a smaller pIC50 number: 1 or 2 ? Lab log: write the label of the selected item as the result.
1

---

Biological target: Mitogen-activated protein kinase 1 (Homo sapiens)
Assay: Inhibition of MEK U911-activated ERK2 (unknown origin) using Erktide as substrate preincubated with enzyme for 20 mins prior to substrate addition by RapidFire Mass Spectrometry in presence of ATP at higher concentration
quantity-kind: IC50 (nM)

- C=CS(=O)(=O)N1CCc2cnc(NC3CCOCC3)nc2C1: 220

a: C=CS(=O)(=O)Nc1ccc2[nH]nc(-c3ccncc3)c2c1
b: C=CC(=O)Nc1ccccc1Nc1cc(NC2CCOCC2)ncc1Cl
Between the entries labelled a and b , which has a larger IC50 value on record? Select an item and report its label.
b

I: C=CC(=O)Nc1ccccc1Nc1nc(Nc2ccnn2C)ncc1Cl
II: CNC(=O)c1ccc(F)cc1Nc1cc(Nc2cc(C)nn2C)ncc1C(F)(F)F
Lower value of IC50 belongs to which: I or II ? Respond with the label that goes with your answer.
I

A: C=CC(=O)Nc1ccccc1Nc1nc(N[C@H]2CC[C@H](N(C)C)CC2)ncc1Cl
B: CNC(=O)c1ccc(F)cc1Nc1cc(NC2CCOCC2)ncc1C(F)(F)F
Just curious, which one has the larger IC50 reading, A or B ? Response format: the label of the selected entry.
B
(B: 380 nM, A: 90 nM)

1: C=CC(=O)Nc1ccccc1Nc1nc(NC2CCOCC2)ncc1Cl
2: CCS(=O)(=O)Nc1ccc2[nH]nc(-c3ccncc3)c2c1
Between 1 and 2 , which one has the lower reported IC50 value? Label of pick, please.
1
(1: 5.4 nM, 2: 1800 nM)

---

Test: AUC (0 to t) in mouse at 100 mg/kg, po
Type: ADME, organism-based
Details: in vivo
quantity-kind: AUC(0-t) (µM·h)
Report only the number, with the unit µM·h understood.

Tell me the measured AUC(0-t) of C=CC(=O)Nc1ccccc1Nc1nc(NC2CCOCC2)ncc1C(F)(F)F , please.
21

---

Test: Solubility of the compound in aqueous phosphate buffer at 25 degC at pH 7.4 after 24 hrs
Assay type: physicochemical
quantity-kind: solubility at 24 h (µM)

A: C=CC(=O)Nc1ccccc1Nc1nc(NC2CCOCC2)ncc1C(F)(F)F
B: C=CC(=O)Nc1cnccc1Nc1nc(NC2CCOCC2)ncc1Cl
C: C=CS(=O)(=O)N1CCc2[nH]nc(-c3ccnc(C)c3)c2C1
D: C=CS(=O)(=O)Nc1ccc2[nH]nc(-c3ccncc3)c2c1
Order the records so the highest solubility at 24 h appears first and the lowest last. Quick reminder: the answer is the labels in the order asked.
C, B, A, D
(C: 300 µM, B: 150 µM, A: 59 µM, D: 7 µM)

P: CNC(=O)c1ccccc1Nc1cc(NC2CCOCC2)ncc1Cl
Q: C=CC(=O)Nc1ccccc1Nc1nc(NC2CCOCC2)ncc1Cl
In the pair P and Q , the larger recorded solubility at 24 h belongs to which? Your choice should be expressed through its label.
P
(P: 290 µM, Q: 46 µM)
